- subject of test: T1, Abeta peptide (40-amino acid Abeta peptide, SEQ ID NO: 1), biotinylated (human, N-terminal biotin or C-terminal lysine-linked biotin, separated from the peptide by a PEG6 linker)
- T1 construct: Synthesized by Genscript; also called amyloid beta; test peptide
- assay overview: BLI (Octet HTX), biotinylated Abeta on streptavidin sensors, 1 uM VHH, 1:1 fit
- Procedure: Binding affinity was measured using Biolayer Interferometry (BLI) with a ForteBio Octet HTX instrument. Biotinylated antigen was loaded onto streptavidin biosensors at a concentration of 100 nM in kinetics buffer (PBS+1% BSA). […]
Define the label as y when kon is strictly less than 10000 M⁻¹ s⁻¹ and as n in all remaining cases.

Worked examples follow.
vhhLib05-5 (VHH, The entry as printed includes a doubled TLVTVSS and HHHHHH) VHH: EVQLLESGGGLVQPGGSLRLSCAASGFTFSSYAMSWVRQAPGKQREWVSAISGSGGSTYYADSVKGRFTISRDNSKNTLYLQMNSLRAEDTAVYYCARLDYTDGINYFDYWGQGTLVTVSS :: y
vhhLib05-10 (VHH, The entry as printed includes a doubled TLVTVSS and HHHHHH) VHH: EVQLLESGGGLVQPGGSLRLSCAASGFTFSSYAMSWVRQAPGKQREWVSAISGSGGSTYYADSVKGRFTISRDNSKNTLYLQMNSLRAEDTAVYYCARVVKVDDIVHAFDIWGQGTLVTVSS :: y
vhhLib05-78 (VHH, The entry as printed includes a doubled TLVTVSS and HHHHHH) VHH: EVQLLESGGGLVQPGGSLRLSCAASGFTFSSYAMTWVRQAPGKQREWVSAISGSGGSTYYADSVKGRFTISRDNSKNTLYLQMNSLRAEDTAVYYCARLATHVDNGLGYNYFDVWGQGTLVTVSS :: y
vhhLib01-34 (VHH, The entry as printed includes HHHHHH) VHH: QVQLVESGGGLVQPGGSLRLSCAASGSIFSVNRMGWYRQAPGKQRELVAAIISGGATNYADSVKGRFTISRDNAKNTVYLQMNSLKPEDTAVYYCARRPAPNGRYHSWYAFDYWGQGTLVTVSS :: y
vhhLib02-26 (VHH, The entry as printed includes HHHHHH) VHH: EVQLVESGGGLVQPGGSLRLSCAASGFTFSAYIMSWYRQAPGKQRELVGAIVSGGLTYYADSVKGRFTISRDNSKNTLYLQMNSLRAEDTAVYYCARHWRWYDSNLVFDLWGQGTLVTVSS :: n

# input for lookup
Task: Hello, is kon of the following binder strictly smaller than 10000 M⁻¹ s⁻¹? vhhLib02-64 (VHH, The entry as printed includes HHHHHH) VHH: EVQLVESGGGLVQPGGSLRLSCAASGFTFSGYFMSWYRQAPGKQRELVSVINSGGSTYYADSVKGRFTISRDNSKNTLYLQMNSLRAEDTAVYYCARGRVATGGGYGFVHYFDVWGQGTLVTVSS
Result: n

The reported numbers originate from patent US20230365667A1.
